Data provenance: a protein production outcome set (Wang et al. 2014)

protocol: label from the status in PepcDB records
measured_metric: protein production

Here's what some known entries look like.
MLKTPSDAAVAGCLSLLLEVSGNPKAGNVDREHDFDDLKFEHFLASAAGAFPAFLEVAEKRIIGEGVLRAVKESMRWHRAENVHFGAFLLLVPLISSWDAG    not failed
MTAPGSVPLTVIGGFWGAGKTTLLNYLLKVQHSERVLVMVNDFGSINIDAELLDQGRHDRPGVVRLQNGCVCCSIGGDLMQAFLQVMSMPDRPDRIIVEASGVADPTRIAQIGRVSGGLSDEGVITLVDASAVRALAADKYVGDIVRQQILSADIVLLNKLDLSSDAEIVETRAWLRDLAPRTRVVSCIHGEVDAVSVLGIGAGKVAPDTAGGPVDVPVPDLRRASTRHADTFHSSTLATEHRFDRRRIEYALDALPQTVLRGKGFVELEGEATPALLQLCGSRWTLDPVSTPAPPAGTHLVFIATGGRGVPRFDAPSHFEQALASRDAASADTSNLEHHHHHH    failed
MSYSWKKILIKPESTVVDALRVIDNEALRIALVVNDEQQLLGVVTDGDIRRGLLNNLPLETPVVDIMSRSPITASVNTAKEQLVKLMESKSILAVPLMEENKVVGLETLHHLFEEKTYHNPVFIMAGGFGTRLRPLTDTCPKPMLKIGNKPILETVIRSFIKAGFVNFYISTHYMPEQIQNHFGDGSELGVKISYVHEDSPLGTGGALGLLPDDLPQDLPLIMMNGDVLTKVDFERLLDFHTENQADATMCVREYDYQIPYGVINGKGNKITSMVEKPIQRFFVNAGIYVVSPSVIQSVPKNHHIDMPTLLEQHMNERDNILMFPIHEYWLDIGRMDDFNRAQADIHTLGLDLEHHHHHH    failed
MMTAPGIYYDGRTSARRTVRLTLEGNRLLVAGEGVETSAELSRLAISSPLSTARRSVRFPSGALCEVSDTRFVDELMRRQGKGRASAAIHRWERSLPLALVALVATVAVVWGFVAFGIPALADKVARAVPPVTEVSLGRESLAMLDKLVFTPSRLPDARRRDIAAQFSRMGRDLPFAAGYRLEFRRSDQLGANALALPSGIIVVTDRLVEIAQSDDELIGVLAHEMGHVRHRHALRHVLQNSATGLIIAAITGDITSITSLAATLPTVLVDASYSRSFETEADDAAVAYLKRRGIPLKSYAAMLGRLEAEHRKKQEEKGKKEKKSLGDYFSTHPVTEERIKRVLEAGRLEHHHHHH    not failed
MSDIAVRPIRAEDVPQACAILNRIIEIGGTTAFEQPVSEDEFDAWYVNGADLICCHVALDAAGAVAGFQWLGRNDSLPEGCGDIASFTRREPVLRGAGRALFACTVAVARDRGLAEINATIRADNALGLAYYGKMGFRDHVVTPAVPLRDGRPVDRISKRFDLRG    failed

Input: So what does the record say about protein production for MAKNQSGSIFNTKVTIKYDKEKIIKLSSEMFSEDLCIQCGRCCMIHVYTTDEKIDPEIVYCNHLDVETKRCKIYKNRFNKEKECLSMLEAILTSALPKDCPYVKNYPSYEEPWFYGLLRGKNLK ?
Output: failed

###

protocol: label from the status in PepcDB records
measured_metric: protein production

Here's what some known entries look like.
PGRPTMMISTTAMNTALLQWHPPKELPGELLGYRLQYCRADEARPNTIDFGKDDQHFTVTGLHKGTTYIFRLAAKNRAGLGEEFEKEIRTPEDL    not failed
IDTVAPDMRIHGFLNAQEFTLYLDTSGEALFKRGLRQTQGEAPLRENLAAGILALTGWQPGTPLLDPMCGSGTLLLEAAQIACRIAPGSGRQFAFEQLKLFDARSWKKLKQTATERQHERTFQSIYGSDLYGSALAHTRNNLAAAGLAECVTLKQANVLEISAPAETGILVSNPPYGVRIGDHQMLAEFYPRLGDVLKQRFSGWRAFLLTADPLLAKSIRLTPSRRTPLFNGALECRLLEYRLVAGSMRREKQPSSESSTNQPIT    failed
MSVLVVGGDEITPIKAVLENLGCKDITHWDGRRESINRKNIPQNTECLVLLTNFLNHNTMKKFRGEAKKRNIPVVCSKRSVSCLYCEYCKIFGEAAAKNCPLNSFELEHHHHHH    failed
MEAAVNAAEAYSHIRAVMGMVVGLSLARLLTGLAGFVQHPKKERIYLLHIGWVAFLFLMLVHFWWWEHRLSATGHVLDFGAFLFLILFCSLFYFLCVLLFPTDMKEYKGYEDYFFSRKSWFFAFLAALFVTDVGDTLLKGHDYLASLGPEYLIRTAIYVVLFTAAAFIDNRRFHRFLVIFALVYQIAWIFRTYDLLA    failed
KLIGITGMPGSGKSAITKLAEKYKIVVVSMGDVVRYETLKQGMPLNPENVGNTAVKLREIYGKEAIAVPCLNYVNEKYNNEDFVIIEGIRSIYEVNYIKKHAELDIIAIHSSPKTRFERLSGRNREDDSNDWNTFVERDERELNFSIGRVISLADYMVVNEGNYMDFVNDLENTFKKIINV    failed
MIGDLDISGVFLPTLLVLMGITYGLYLLVHGVLTRLHFYRLVWHRALFNVGLYALLLGAVDSLSRYLMT    failed

Input: So what does the record say about protein production for MTENTFTDPSWLRLSCFIGVLLLCNLWENKLPRKTLTVKRSFRWLNNLSLVALNSAIIALVMPIAAFQAAAIAHDQQWGLFNLLSLPGWLNVLLAVIVLDLIIYVQHLVFHRVKPLWKIHRMHHADLDIDVTTGARFHPIEIIISMVVKITSVFILGVSPLAIVVFEIILNASAMFNHSNAKLALSIDKKLRKVIVTPDMHRVHHSVMVKETHSNFGFFLSVWDRWFGTYRAQPALGHNDVVIGVPEIREASEQRLDKLLTQPFRYREGKGKNVD ?
Output: not failed

Input: Also check MMRFVIGFLLSILASISLVSPANAAVIDHDKVVGFEEVTPTTITQKVAKRFQPYLTVSTGCVPFPAVDADGNTSGGLAPTGPHNGGCSSHIGQVYSRSTWHNGVWAIMYAWYFPKDSPSPGLGHRHDWEGIVVWVDNPANPSPQLLSIAYSQHGNFYNVAPTDRNTREQRPLIRYSHAWPLNHSLWIHDQVGGTQPLIGWDDLTPAARHALNTTDFGAANVPFNDHNFINNLRKAWYRLEHHHHHH
Output: failed
